- Tested on: MCC-26
- test: qHTS assay to identify novel small-molecules to repurpose for Merkel cell carcinoma treatment (AID 1296009); note: nearly all actives have a fitted effect of over 60% in size
- cond: MCC and control cell lines, CellTiter-Glo viability, 72 h; series mostly up to 46 µM
Inconclusive results are not listed. Active and inactive are the calls of the source. Calls come from the whole dose curve; as a rule, active = well fitted inhibition curve with a large enough effect; inconclusive = small, poorly fitted or top-dose-only effect; inactive = flat fitted curve, though single readings scatter.
Give your call using only these classes: 1 (active), 0 (inactive)

Look over these answered cases.
# compound, cat
rows = [
    ("CCOC(=O)C1=C(C)NC2=C(C(=O)CC(C)(C)C2)C1c1ccc(-c2ccccc2)cc1 (stereo not given)", 0),
    ("Cc1nc2ccc(CN(C)c3ccc(C(=O)N[C@@H](CCC(=O)O)C(=O)O)s3)cc2c(=O)[nH]1", 0),
    ("CNC(=O)c1ccc(-c2cnc3ncc(Cc4ccc5ncccc5c4)n3n2)cc1F", 0),
    ("Clc1ccc2ncc(-c3cccc(NC4CNC4)n3)n2c1", 0),
    ("Cc1ccc(-c2ncn(-c3ccc(Nc4nccc(-c5cccc(N6CCOCC6)c5)n4)cc3)n2)cn1", 1),
]

Look up the recorded call for Cc1ccc(NC(=O)C2(c3ccc4c(c3)OC(F)(F)O4)CC2)nc1-c1cccc(C(=O)O)c1 in this test.
1

====

- test: qHTS of pediatric cancer cell lines to identify multiple opportunities for drug repurposing: Primary screen for Rh41 cells (AID 1347108); note: nearly all actives have a fitted effect of over 70% in size; note: potency is the fitted concentration of half-maximal effect
- cond: Rh41 rhabdomyosarcoma viability, CellTiter-Glo luminescence, 48 h; series mostly up to 46 µM
Results filed as inconclusive are left out. The source made the active and inactive calls. Calls come from the whole dose curve; as a rule, active = well fitted cell-killing curve with a large enough effect; inconclusive = small, poorly fitted or top-dose-only effect; inactive = no such curve, though single readings can be large or run the other way.
measured quantity: Potency

Below: 5 compounds and their reported Potency.
# compound, measured quantity, result value
records = [
    ("CC(C)c1cnn2c(NCc3ccccc3)cc(N[C@@H](CO)[C@H](O)CO)nc12", "Potency", "0.743 µM (active)"),
    ("COc1cc(OC2CCN(C)CC2)ccc1Nc1ncc2c(n1)n(C1CCCC1)c(=O)n2C", "Potency", "18.7 µM (active)"),
    ("CC(O)C1C(=O)N2C(C(=O)O)=C(SC3CNC(C(=O)N(C)C)C3)C(C)C12 (stereo unspecified)", "Potency", "inactive"),
    ("CC[C@H]1CN2CCc3cc(OC)c(OC)cc3[C@H]2C[C@@H]1C[C@@H]1NCCc2cc(OC)c(OC)cc21", "Potency", "4.69 µM (active)"),
    ("Cn1cncc1[C@@](N)(c1ccc(Cl)cc1)c1ccc2c(c1)c(-c1cccc(Cl)c1)cc(=O)n2C", "Potency", "14.8 µM (active)"),
]

Turning now to a further compound:
Which Potency is reported for this compound? O=C(O)[C@H](Cc1c[nH]c2ccccc12)N1C(=O)c2ccccc2C1=O
inactive

====

- study target: Tyrosine-protein kinase Yes (Homo sapiens) (UniProt P07947)
- Sequence (P07947 whole entry, looked up): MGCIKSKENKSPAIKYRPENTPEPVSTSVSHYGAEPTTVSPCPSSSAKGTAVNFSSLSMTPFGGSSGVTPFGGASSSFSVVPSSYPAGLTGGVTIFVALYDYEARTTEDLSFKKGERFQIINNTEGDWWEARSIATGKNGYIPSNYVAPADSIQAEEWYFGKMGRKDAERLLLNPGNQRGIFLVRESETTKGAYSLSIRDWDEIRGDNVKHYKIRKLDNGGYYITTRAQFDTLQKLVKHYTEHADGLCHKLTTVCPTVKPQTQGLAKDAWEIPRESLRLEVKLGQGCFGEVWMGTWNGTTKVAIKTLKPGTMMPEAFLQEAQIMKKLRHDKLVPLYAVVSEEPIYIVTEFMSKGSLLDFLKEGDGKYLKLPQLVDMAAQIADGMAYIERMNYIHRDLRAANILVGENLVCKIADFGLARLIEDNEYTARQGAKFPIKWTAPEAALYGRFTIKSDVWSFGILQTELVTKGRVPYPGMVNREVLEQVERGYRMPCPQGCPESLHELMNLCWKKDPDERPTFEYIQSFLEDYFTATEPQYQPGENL
- test: qHTS for small molecule inhibitors of Yes1 kinase: Primary Screen (AID 686947); note: nearly all actives have a fitted effect of over 60% in size
- cond: Yes1 kinase biochemical qHTS inhibition; series mostly up to 76.9 µM
Results filed as inconclusive are left out. Activity calls are given as the source filed them. Calls come from the whole dose curve; as a rule, active = well fitted inhibition curve with a large enough effect; inconclusive = small, poorly fitted or top-dose-only effect; inactive = no such curve, though single readings can be large or run the other way.
Would you mind answering with one of these outcomes? active, inactive

# compound, study target, cat
data = [
    ("NC(=O)c1c(OCc2c(F)cc(Br)cc2F)nsc1NC(=O)NCCCCN1CCCC1", "Tyrosine-protein kinase Yes (Homo sapiens) (UniProt P07947)", "active"),
    ("Cn1c2cc(S(C)=O)sc2c2cnn(Cc3cccc(N)c3)c(=O)c21 (stereo not given)", "Tyrosine-protein kinase Yes (Homo sapiens) (UniProt P07947)", "inactive"),
    ("Cc1cccc(C=NNc2cc(N3CCOCC3)nc(OCCc3ccccn3)n2)c1", "Tyrosine-protein kinase Yes (Homo sapiens) (UniProt P07947)", "inactive"),
]

// outcome(item) with item = COc1ccc(CC2SC(=O)NC2=O)cc1C(=O)NCc1ccc(C(F)(F)F)cc1 (stereo not given)
inactive

Same lookup for CC(C)(C)c1cc(C(C)(C)C)c(NC(=O)c2c[nH]c3ccccc3c2=O)cc1O , please.
inactive

====

- test: qHTS Screen of the MIPE 4.0 Collection Against Ewings Sarcoma (TC71) (AID 1259253); note: nearly all actives have a fitted effect of over 40% in size
- cond: TC71 Ewing sarcoma viability, CellTiter-Glo, 48 h; series mostly up to 45.8 µM
Inconclusive results are not listed. Active and inactive are the calls of the source. Calls follow the shape of the dose curve; as a rule, active = well fitted inhibition curve with a large enough effect; inconclusive = small, poorly fitted or top-dose-only effect; inactive = no such curve, though single readings can be large or run the other way.
Outcome (select one): yes (1) = active, no (0) = inactive

Take a look at these entries with their results.
# record smiles, cat
measured = [
    ("Cn1c(=O)n(-c2ccc(C(C)(C)C#N)cc2)c2c3cc(-c4cnc5ccccc5c4)ccc3ncc21", "yes (1)"),
    ("O=C(Nc1nc2cccc(-c3ccc(CN4CCS(=O)(=O)CC4)cc3)n2n1)C1CC1", "yes (1)"),
    ("COc1cccc(Nc2c(C(N)=O)cnc3c(C)cc(S(=O)(=O)c4cccc(C(=O)N(C)C)c4)cc23)c1", "no (0)"),
    ("COC(=O)Nc1ccc(-c2nc(N3CCOCC3)c3cnn(C4CCN(Cc5cccnc5)CC4)c3n2)cc1", "yes (1)"),
    ("O=C(Nc1ncc(-c2cc(C(F)F)nn2-c2c(Cl)cccc2Cl)s1)C1CC1", "yes (1)"),
    ("COc1cc2c(Nc3ccc(NC(=O)c4ccccc4)cc3)ncnc2cc1OCCCN1CCOCC1", "yes (1)"),
]

Dear all, I need the recorded test outcome for COc1ccc(C=Cc2cc(OC)c(OC)c(OC)c2)cc1O , thank you.
no (0)

# repeat for O=C(NC1CCNCC1)c1[nH]ncc1NC(=O)c1c(Cl)cccc1Cl
yes (1)

Same again, this time with O=C(O)c1ccc2c(c1)nc(Nc1cccc(Cl)c1)c1ccncc12
yes (1)

Cool, now O=C(Nc1cn[nH]c1-c1nc2ccc(CN3CCOCC3)cc2[nH]1)NC1CC1
yes (1)

And for COc1c(N2C[C@@H]3CCCN[C@H]3C2)c(F)cc2c(=O)c(C(=O)O)cn(C3CC3)c12 ?
no (0)

Let us now turn to CC(C)(C)c1cc(C(C)(C)C)c(NC(=O)c2c[nH]c3ccccc3c2=O)cc1O
no (0)

====

- test: qHTS profiling of the MIPE4 collection as inhibitors of Plasmodium falciparum (DD2) proliferation (AID 743345)
- cond: P. falciparum Dd2 in erythrocytes, SYBR Green DNA, 72 h; at 28.5 µM (top of the series) unless noted
- Procedure: Plasmodium falciparum is a virulent malarial parasite that kills 1-2 million people worldwide each year. […] Because mature erythrocytes lack DNA, only Plasmodium-derived DNA is detected. The SYBR Green viability assay was adapted from a method described previously (Plouffe et al., 2008). […] The following morning, fluorescence intensity at 485(14) nm excitation and 535(25) nm emission wavelengths was measured on an EnVision (Perkin Elmer) plate reader. […]
parasite growth remaining, % of DMSO control (lower = more inhibition) listing for selected molecules.
Write the value in % as a bare number.

Name the recorded parasite growth remaining, % of DMSO control (lower = more inhibition) for CCN(CC)CCNC(=O)c1ccc2nc(-c3ccccc3)c(-c3ccc(CN4CCC(n5c(=O)[nH]c6ccccc65)CC4)cc3)nc2c1 .
5.78

====

- test: Quantitative High-Throughput drug screen in 47 multiple myeloma cell lines against the NCATS MIPE library collection: L363_DSMZ cell viability assay (AID 1918984); note: potency is the fitted concentration of half-maximal effect; nearly all actives have a fitted effect of over 40% in size
- cond: L363 myeloma viability, CellTiter-Glo ATP luminescence, 48 h; series mostly up to 45.8 µM
Inconclusive results are not listed. Activity calls are given as the source filed them. Calls come from the whole dose curve; as a rule, active = well fitted cell-killing curve with a large enough effect; inconclusive = small, poorly fitted or top-dose-only effect, or effect the other way; inactive = no such curve, though single readings can be large or run the other way.
// allowed return values: yes for active, no for inactive

Consider the following illustrative entries.
# record smiles, cat
rows = [
    ("CN1CCC(CNc2ccc3ncc(-c4cccc(OC(F)(F)F)c4)n3n2)CC1", "yes"),
    ("COC(=O)[C@]12CCC(C)(C)C[C@@H]1[C@@H]1C(=O)C=C3[C@@]4(C)C=C(C#N)C(=O)C(C)(C)[C@@H]4CC[C@@]3(C)[C@]1(C)CC2", "yes"),
    ("CC1(C)O[C@@H]2C[C@@H]3[C@H]4C[C@@H](F)C5=CC(=O)C=C[C@]5(C)[C@@]4(F)[C@@H](O)C[C@]3(C)[C@]2(C(=O)CO)O1", "yes"),
    ("C[C@@H](Oc1cc(-n2cnc3ccc(CN4CCN(C)CC4)cc32)sc1C(N)=O)c1ccccc1C(F)(F)F", "yes"),
]

Hey, what did the test say about CC(C)C[C@H](NC(=O)CNC(=O)c1cc(Cl)ccc1Cl)B(O)O ?
yes

Repeat for the following molecule: OCCCNc1cc(-c2ccnc(Nc3cccc(Cl)c3)n2)ccn1
yes

====

- Tested on: HaCat
- test: Cytotoxic Profiling of Annotated Libraries Using Quantitative High-Throughput Screening (AID 1296008); note: nearly all actives have a fitted effect of over 60% in size
- cond: Five cell lines viability, CellTiter-Glo ATP luminescence, 48-72 h
Records with an inconclusive call do not appear. Calls of active or inactive are those of the source. Calls come from the whole dose curve; as a rule, active = well fitted inhibition curve with a large enough effect; inconclusive = small, poorly fitted or top-dose-only effect; inactive = flat fitted curve, though single readings scatter.
Give one outcome, nothing more. List: T = active, F = inactive

For orientation, consider the following solved cases.
# compound, study target, cat
data = [
    ("O=C(Cc1ccc(-c2ccc(OCCN3CCOCC3)cc2)cn1)NCc1ccccc1", "HaCat", "F"),
    ("COc1ccc2c(OCc3nnc4ccc(-c5ccccc5)nn34)ccnc2c1", "HaCat", "F"),
    ("C=C1C(=CC=C2CCCC3(C)[C@@H]([C@H](C)C=CC=CC(O)(CC)CC)CC[C@@H]23)C[C@@H](O)C[C@@H]1O (stereo partly specified)", "HaCat", "F"),
]

GET /call?item= O=C(NCCCNc1nc(Nc2cccc(NC(=O)N3CCCC3)c2)ncc1I)c1cccs1 returns the recorded outcome of this test.
T

// repeat for CN1CC[C@@H](c2c(O)cc(O)c3c(=O)cc(-c4ccccc4Cl)oc23)[C@@H](O)C1 and report
T

Again, but for Cc1ccc(C(N)=O)cc1Nc1nccc(-c2cn(C(C)C)c3cnccc23)n1
T

Also COc1cc(=C2C=c3ccccc3=N2)[nH]c1=Cc1[nH]c(C)cc1C , if possible.
T

Same read-out for O=C(C=Cc1cccc(S(=O)(=O)Nc2ccccc2)c1)NO ?
T

Would you kindly repeat that for C=CC(=O)Nc1cc2c(Nc3ccc(F)c(Cl)c3)ncnc2cc1C#CC(C)(C)N1CCN(C)CC1 ?
T

Ok, now Cc1ccc(CN2CCNCC2)cc1NC(=O)CNc1ccc(F)c(F)c1
F

Another compound to look at: CS(=O)(=O)c1ccc(-c2cnc(N)c(C(=O)Nc3ccccc3)n2)cc1
F
